- System: PRKD1;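 further: KINOMEscan kinase panel screen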
- condition.notes: concentration: 1 μM, replicates: in singlicate; n = 1
quantity: %Inh (%)
Quick note: give the figure in %, leave out the unit.

Entry under review: CN(c1ccc(NC(=O)N2CCN(CCCN3CCOCC3)CC2)cc1)c1ccnc(Nc2ccc(CS(C)(=O)=O)cc2)n1.Cl [GW830899] . Reported %Inh?
0

Which value of %Inh has been reported for CCOc1nccc(-c2c(-c3ccc(F)cc3)ncn2C2CCNCC2)n1 [SB-249175] in the records?
38

Consider the molecule shown here: Cn1cc(-c2cnc(N)c3c(-c4ccc5c(c4)CCN5C(=O)Cc4ccccc4)csc23)cn1 [GSK2593074] What is its recorded %Inh?
6

Recorded %Inh of CN(C)CCOc1ccc(-c2cc(-c3ccc(Cl)c(O)c3)c(-c3ccncc3)[nH]2)cc1.Cl.Cl [SB-684387] , please.
14

Reported %Inh for O=C(Nc1n[nH]c2nc(-c3ccccc3)ccc12)C1CC1 [SB-708999] : what is it?
0

I have this molecule here, CN(c1ccc2c(c1)nc(NCc1ccccc1)n2C)c1ccnc(Nc2ccc(CS(C)(=O)=O)cc2)n1.Cl [GW811603] , and I need its recorded %Inh.
0

For the molecule "CCNc1nccc(-c2c(-c3ccc(F)cc3)ncn2C2CCN(C)CC2)n1" , what %Inh is on record?
40

Fill in the blank: the reported %Inh of Cc1cccc(Nc2nc(N[C@H]3CCCC[C@H]3N)ncc2C(N)=O)c1.Cl [GSK986310] is ____.
50
